# Test system: HCI-008 (organoid from a HER2-enriched breast cancer xenograft)
# PROTOCOL_SUMMARY: CTG-3D luminescence at 96 h relative to day-0 seeding control (ratio to day 0); higher = more growth / less cytotoxicity; PDxO 3D drug screen (set 2), 96 h, CTG-3D normalised to day-0 seeding control.
# CONDITION_NOTES: 1 µM; days in culture: 340
Overview of reported CTG-3D luminescence at 96 h across a group of molecules:
Could you respond with only the numeric value?

MOLECULE | EXPERIMENTAL_SYSTEM | VALUE_OBSERVED
COc1cccc2c1C(=O)c1c(O)c3c(c(O)c1C2=O)C[C@@](O)(C(=O)CO)C[C@@H]3O[C@H]1C[C@H](N)[C@@H](O)[C@H](C)O1 [epirubicin] | HCI-008 | 0.612
CO[C@H]1C[C@@H]2CC[C@@H](C)[C@@](O)(O2)C(=O)C(=O)N2CCCC[C@H]2C(=O)O[C@H]([C@H](C)C[C@@H]2CC[C@@H](O)[C@H](OC)C2)CC(=O)[C@H](C)/C=C(\C)[C@@H](O)[C@@H](OC)C(=O)[C@H](C)C[C@H](C)/C=C/C=C/C=C/1C [rapamycin] | HCI-008 | 1.17
O=C(c1cc(Cc2n[nH]c(=O)c3ccccc23)ccc1F)N1CCN(C(=O)C2CC2)CC1 [olaparib] | HCI-008 | 1.67

Continue with the next molecule.
Prompt: Bench note: what CTG-3D luminescence at 96 h did CC(=O)O[C@@]12CO[C@@H]1C[C@H](O)[C@@]1(C)C(=O)[C@H](O)C3=C(C)[C@@H](OC(=O)[C@H](O)[C@@H](NC(=O)OC(C)(C)C)c4ccccc4)C[C@@](O)([C@@H](OC(=O)c4ccccc4)[C@H]21)C3(C)C [docetaxel] show?
Response: 0.918

###

# System: HCI-025 (organoid from a breast cancer xenograft)
# PROTOCOL_SUMMARY: CTG-3D luminescence at 96 h relative to day-0 seeding control (ratio to day 0); higher = more growth / less cytotoxicity; PDxO 3D drug screen (set 2), 96 h, CTG-3D normalised to day-0 seeding control.
# CONDITION_NOTES: 0.005 µM; days in culture: 175
PROPERTY_NAME: CTG-3D luminescence at 96 h
Respond using a number only.

Guide cases for CTG-3D luminescence at 96 h, answers given:
MOLECULE | VALUE_OBSERVED
CO[C@H]1C[C@@H]2CC[C@@H](C)[C@@](O)(O2)C(=O)C(=O)N2CCCC[C@H]2C(=O)O[C@H]([C@H](C)C[C@@H]2CC[C@@H](OCCO)[C@H](OC)C2)CC(=O)[C@H](C)/C=C(\C)[C@@H](O)[C@@H](OC)C(=O)[C@H](C)C[C@H](C)/C=C/C=C/C=C/1C [everolimus] | 0.949
Cc1c(CN2CCN(C(=O)[C@H](C)O)CC2)sc2c(N3CCOCC3)nc(-c3cnc(N)nc3)nc12 [apitolisib] | 1.53

Prompt: For the molecule CC(=O)c1c(C)c2cnc(Nc3ccc(N4CCNCC4)cn3)nc2n(C2CCCC2)c1=O [palbociclib] , what CTG-3D luminescence at 96 h is on record?
Response: 1.75

Prompt: Entry CCOc1ccn(-c2ccc(F)cc2)c(=O)c1C(=O)Nc1ccc(Oc2ccnc(N)c2Cl)c(F)c1 [ASLAN002] : reported CTG-3D luminescence at 96 h = ?
Response: 1.91

###

# System: HCI-003.E2 (organoid from an ER-positive breast cancer xenograft)
# PROTOCOL_SUMMARY: CTG-3D luminescence at 96 h relative to day-0 seeding control (ratio to day 0); higher = more growth / less cytotoxicity; PDxO 3D drug screen, 96 h, CTG-3D normalised to day-0 seeding control.
# CONDITION_NOTES: 0.005 µM
Each entry below carries its recorded CTG-3D luminescence at 96 h.

Example cases with answers are listed next.
COMPOUND | CTG-3D luminescence at 96 h
CCN(c1cc(C#CCN2CCOCC2)cc(C(=O)NCc2c(C)cc(C)[nH]c2=O)c1C)[C@H]1CC[C@H](N(C)CCOC)CC1 | 1.71
Cc1cc(Nc2ncc(Cl)c(Nc3ccccc3S(=O)(=O)C(C)C)n2)c(OC(C)C)cc1C1CCNCC1 [ceritinib] | 1.82

Now consider the entry below.
Prompt: Request the reported CTG-3D luminescence at 96 h associated with O=C(/C=C/c1cccnc1)NCCCCC1CCN(C(=O)c2ccccc2)CC1 [FK866]
Response: 0.395

###

Measured CTG-3D luminescence at 96 h values are reported for all entries that follow.
# Test system: HCI-016 (organoid from a triple-negative breast cancer xenograft)
# PROTOCOL_SUMMARY: CTG-3D luminescence at 96 h relative to day-0 seeding control (ratio to day 0); higher = more growth / less cytotoxicity; PDxO 3D drug screen, 96 h, CTG-3D normalised to day-0 seeding control.
# CONDITION_NOTES: 0.1 µM; days in culture: 172
Lab note: record the figure alone, no unit after it.

Field: example entries. Status: answers known.
COMPOUND | EXPERIMENTAL_SYSTEM | PROPERTY_NAME | VALUE_OBSERVED
CNC(=O)c1cccc(-c2ccc3c(N4CCOC[C@@H]4C)nc(N4CCOC[C@@H]4C)nc3n2)c1 [vistusertib] | HCI-016 | CTG-3D luminescence at 96 h | 1.67
Cc1cc(Nc2ncnc3ccc(NC4=NC(C)(C)CO4)cc23)ccc1Oc1ccn2ncnc2c1 [tucatinib] | HCI-016 | CTG-3D luminescence at 96 h | 1.43

Prompt: Which CTG-3D luminescence at 96 h is listed for O=C(O)C1(C(=O)O)CCC1.[NH2-].[NH2-].[Pt+2] [carboplatin] ?
Response: 1.3

Prompt: Query: CTG-3D luminescence at 96 h; subject: Nc1ccn([C@@H]2O[C@H](CO)[C@@H](O)C2(F)F)c(=O)n1 [gemcitabine]
Response: 0.366

Prompt: What value of measured CTG-3D luminescence at 96 h is listed for C=CC(=O)N1CCC[C@@H](n2nc(-c3ccc(Oc4ccccc4)cc3)c3c(N)ncnc32)C1 [ibrutinib] ?
Response: 1.61

Prompt: Record request: CTG-3D luminescence at 96 h value, item Cc1cc(Nc2ncc(Cl)c(Nc3ccccc3S(=O)(=O)C(C)C)n2)c(OC(C)C)cc1C1CCNCC1 [ceritinib]
Response: 1.31

###

# System: HCI-027 (organoid from a triple-negative breast cancer xenograft)
# PROTOCOL_SUMMARY: CTG-3D luminescence at 96 h relative to day-0 seeding control (ratio to day 0); higher = more growth / less cytotoxicity; PDxO 3D drug screen, 96 h, CTG-3D normalised to day-0 seeding control.
# CONDITION_NOTES: 625 fM; days in culture: 201
PROPERTY_NAME: CTG-3D luminescence at 96 h

Solved entries:
MOLECULE_SMILES | VALUE_OBSERVED
C[C@H](NC(=O)CCC(F)(F)F)C(=O)N[C@@H]1C(=O)N(CCO)c2ncccc2-c2ccccc21 | 1.97
Nc1ccn([C@@H]2O[C@H](CO)[C@@H](O)C2(F)F)c(=O)n1 | 2.28
COc1cccc2c1C(=O)c1c(O)c3c(c(O)c1C2=O)C[C@@](O)(C(=O)CO)C[C@@H]3O[C@H]1C[C@H](N)[C@H](O)[C@H](C)O1 | 2.05
CCN1CCN(Cc2ccc(Nc3ncc(F)c(-c4cc(F)c5nc(C)n(C(C)C)c5c4)n3)nc2)CC1 | 2.37
C=CC(=O)N1CCC[C@@H](n2nc(-c3ccc(Oc4ccccc4)cc3)c3c(N)ncnc32)C1 | 2.11

Below: the item to evaluate.
Prompt: For the molecule shown here, "NC(=O)c1cccc2cn(-c3ccc([C@@H]4CCCNC4)cc3)nc12" , give the reported CTG-3D luminescence at 96 h.
Response: 2.7

###

Measured CTG-3D luminescence at 96 h values are reported for all entries that follow.
# Test system: HCI-001 (organoid from a triple-negative breast cancer xenograft)
# PROTOCOL_SUMMARY: CTG-3D luminescence at 96 h relative to day-0 seeding control (ratio to day 0); higher = more growth / less cytotoxicity; PDxO 3D drug screen, 96 h, CTG-3D normalised to day-0 seeding control.
# CONDITION_NOTES: 0.005 µM; days in culture: 269

Completed entries (count: 3):
COMPOUND | CTG-3D luminescence at 96 h
CNC(=O)c1cccc(-c2ccc3c(N4CCOC[C@@H]4C)nc(N4CCOC[C@@H]4C)nc3n2)c1 [vistusertib] | 1.55
C[C@]12CC[C@@H]3c4ccc(O)cc4C[C@@H](CCCCCCCCC[S+]([O-])CCCC(F)(F)C(F)(F)F)[C@H]3[C@@H]1CC[C@@H]2O (some centres undefined) [fulvestrant] | 1.41
CC(C)(C(=O)NCC(F)(F)C(F)(F)F)C(=O)N[C@@H]1C(=O)Nc2ccccc2-c2ccccc21 | 1.38

Here is the next item to consider.
Prompt: What CTG-3D luminescence at 96 h value was documented for this compound, O=C(O)C1(C(=O)O)CCC1.[NH2-].[NH2-].[Pt+2] [carboplatin] ?
Response: 1.58
